- assay_text: Cytotoxicity against human HeLa Rh cells assessed as reduction in cell viability incubated for 3 days by MTS assay
- Format: cell-based
Rule: CC50 at 72 h below 40 µM gives 1.0. Equal to or above 40 µM gives 0.0.

1) O=C(/C=C/c1ccccc1)N[C@@H](Cc1ccccc1)C(=O)N[C@@H](C[C@@H]1CCNC1=O)C(=O)C(=O)NCc1ccccc1; 1.0
2) O=C(/C=C/c1ccccc1)N[C@@H](CC1CCC1)C(=O)N[C@@H](C[C@@H]1CCNC1=O)C(=O)C(=O)NCc1ccccc1; 0.0
3) O=C(/C=C/c1ccccc1)N[C@@H](CC1CCCCC1)C(=O)N[C@@H](C[C@@H]1CCNC1=O)C(=O)C(=O)NCc1ccccc1; 1.0
4) CC(C)C[C@H](NC(=O)/C=C/c1ccccc1)C(=O)N[C@@H](C[C@@H]1CCNC1=O)C(=O)C(=O)NCc1ccccc1; 0.0
5) O=C(/C=C/c1ccccc1)N[C@@H](CC1CC1)C(=O)N[C@@H](C[C@@H]1CCNC1=O)C(=O)C(=O)NCc1ccccc1; 0.0
6) O=C(/C=C/c1ccccc1)N[C@@H](CC1CCCC1)C(=O)N[C@@H](C[C@@H]1CCNC1=O)C(=O)C(=O)NCc1ccccc1; 1.0

###

- assay_text: Therapeutic index, ratio of CC50 for human HeLa Rh cells to EC50 for Human rhinovirus 2 infected in human HeLa Rh cells
- Type: toxicity, cell-based
- stated_conditions: read-out: Ratio CC50/EC50
readout: selectivity ratio

1. O=C(/C=C/c1ccccc1)N[C@@H](CC1CCC1)C(=O)N[C@@H](C[C@@H]1CCNC1=O)C(=O)C(=O)NCc1ccccc1; > 15
2. O=C(/C=C/c1ccccc1)N[C@@H](Cc1ccccc1)C(=O)N[C@@H](C[C@@H]1CCNC1=O)C(=O)C(=O)NCc1ccccc1; > 15
3. O=C(/C=C/c1ccccc1)N[C@@H](CC1CCCCC1)C(=O)N[C@@H](C[C@@H]1CCNC1=O)C(=O)C(=O)NCc1ccccc1; > 15
